Data provenance: patent US20220372014A1

# System: PARP
# assayName: MNNG-induced PAR accumulation (PARP activation), western blot
# Format: cell-based
# assaySetup: FIG. 12A
readout: MNNG-induced PARP activation (PAR accumulation)

Task: Need MNNG-induced PARP activation (PAR accumulation), item "COc1ccc(CC[C@H]2OC(=O)[C@@H]3CCCCN3C(=O)C(=O)C(C)(C)COC(=O)C=CCCN(C)C(=O)[C@H](C)NC(=O)[C@H](C(C)C)N(C)C(=O)[C@@H](Cc3ccccc3)NC(=O)[C@H](CC(C)C)N(C)C(=O)CCC(=O)Nc3cccc2c3)cc1OC"
Result: did not affect

Task: Look up MNNG-induced PARP activation (PAR accumulation) for this molecule: "COc1ccc(CC[C@H]2OC(=O)[C@@H]3CCCCN3C(=O)C(=O)C(C)(C)COC(=O)C=CCCN(C)C(=O)CNC(=O)[C@H](C(C)C)N(C)C(=O)[C@@H](Cc3ccccc3)NC(=O)[C@H](CC(C)C)N(C)C(=O)CCC(=O)Nc3cccc2c3)cc1OC"
Result: did not affect

Task: Entry COc1ccc(CC[C@H]2OC(=O)[C@@H]3CCCCN3C(=O)C(=O)C(C)(C)COC(=O)C=CCCN(C)C(=O)[C@@H]3CCCN3C(=O)[C@H](COC(C)(C)C)N(C)C(=O)C(c3ccccc3)NC(=O)CN(C)C(=O)COc3cccc2c3)cc1OC (stereo partly shown) : reported MNNG-induced PARP activation (PAR accumulation) = ?
Result: did not affect

Task: Report MNNG-induced PARP activation (PAR accumulation) for COc1ccc(CC[C@H]2OC(=O)[C@@H]3CCCCN3C(=O)C(=O)C(C)(C)COC(=O)C=CCCN(C)C(=O)[C@@H]3CCCN3C(=O)[C@H](COC(C)(C)C)N(C)C(=O)C(c3ccccc3)NC(=O)[C@H](C)N(C)C(=O)COc3cccc2c3)cc1OC (stereo partly shown) please.
Result: did not affect
